Data provenance: BigSolDB 2.1

conditions: in isopropanol, 288.15 K

compound: CC(C(=O)O)c1ccc(CC2CCCC2=O)cc1 (stereo unspecified)
solubility (mole fraction): 0.0747

====

conditions: in isopropanol, 323.15 K

molecule: CC(C(=O)O)c1ccc(CC2CCCC2=O)cc1 (stereo unspecified)
solubility (mole fraction): 0.277

====

details: in n-propyl acetate, 313.15 K
measurement_kind: solubility (mole fraction)

compound: CC(C(=O)O)c1ccc(CC2CCCC2=O)cc1 (stereo unspecified)
measurement_kind: solubility (mole fraction)
number: 0.127

====

settings: in 1,4-dioxane, 298.15 K

molecule: CC(C(=O)O)c1ccc(CC2CCCC2=O)cc1 (stereo unspecified)
solubility (mole fraction): 0.214
